target: soluble human CD3 (extracellular domain of human CD3) (human); test: capture ELISA, plate coated with 1 µg/ml soluble human CD3, OD450
Sequence (P07766 23-126, chain 1 of 2): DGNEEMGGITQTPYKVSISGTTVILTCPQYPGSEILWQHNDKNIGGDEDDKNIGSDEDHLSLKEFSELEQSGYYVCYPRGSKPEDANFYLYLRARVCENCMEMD
Sequence (P04234 22-105, chain 2 of 2, further chain): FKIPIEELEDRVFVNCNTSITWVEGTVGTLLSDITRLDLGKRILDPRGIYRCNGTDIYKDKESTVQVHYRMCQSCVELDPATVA
measurementType: EC50 (read off the curve) (µg/mL)
Please respond with the number in µg/mL and leave the unit unwritten.

1) antibody having an h-mAb2 VL-6 light chain and the heavy chain of the mAb2 chimeric antibody (antibody, V domains shown, also called h-mAb2 VL-6 light chain antibody (Kabat F36V and T46G)) VH: EVKLLESGGGLVQPKGSLKLSCAASGFTFNTYAMNWVRQAPGKGLEWVARIRSKYNNYATYYADSVKDRFTISRDDSQSILYLQMNNLKTEDTAMYYCVRHGNFGNSYVSWFAYWGQGTLVTVSA VL: QAVVTQEPSLTVSPGGTVTLTCRSSTGAVTTSNYANWVQQKPGQAPRGLIGGTNKRAPWTPARFSGSLLGGKAALTITGAQAEDEADYYCALWYSNLWVFGGGTKLTVLG | 0.03
2) humanized mAb2 (h-mAb2) (antibody, V domains shown, also called humanized variant of mAb2) VH: EVQLVESGGGLVQPGGSLRLSCAASGFTFNTYAMNWVRQAPGKGLEWVARIRSKYNNYATYYADSVKDRFTISRDDSKNSLYLQMNSLKTEDTAVYYCVRHGNFGNSYVSWFAYWGQGTLVTVSS VL: QAVVTQEPSLTVSPGGTVTLTCRSSTGAVTTSNYANWVQQKPGQAPRGLIGGTNKRAPWTPARFSGSLLGGKAALTITGAQAEDEADYYCALWYSNLWVFGGGTKLTVLG | 0.03
3) chimeric variant of mAb2 antibody (ch-mAb2) (antibody, V domains shown, also called chimeric mAb2; mAb2 chimeric antibody) VH: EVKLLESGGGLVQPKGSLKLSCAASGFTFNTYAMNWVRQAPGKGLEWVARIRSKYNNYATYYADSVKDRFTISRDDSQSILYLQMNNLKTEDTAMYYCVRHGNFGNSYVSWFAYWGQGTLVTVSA VL: QAVVTQESALTTSPGETVTLTCRSSTGAVTTSNYANWVQEKPDHLFTGLIGGTNKRAPGVPARFSGSLIGDKAALTITGAQTEDEAIYFCALWYSNLWVFGGGTKLTVLG | 0.03

Now take the following binder into account.
Entry under review: h-mAb2VH-8 HC / ch-mAb2 LC (antibody, V domains shown, also called ch-mAb2 LC / h-mAb2VH-8 HC) VH: EVQLVESGGGLVQPGGSLRLSCAASGFTFNTYAMNWVRQAPGKGLEWVARIRSKYNNYATYYADSVKDRFTISRDDSKNSLYLQMNSLKTEDTAVYYCVRHGNFGNSYVSWFAYWGQGTLVTVSS VL: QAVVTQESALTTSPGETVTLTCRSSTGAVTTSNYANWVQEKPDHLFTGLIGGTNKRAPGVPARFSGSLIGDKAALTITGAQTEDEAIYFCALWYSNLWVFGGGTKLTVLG . Reported EC50 (read off the curve)? 0.03

Just for reference, patent US20220056131A1 is where these values come from.
